Quick reference for pIC50 among some compounds
- tested_on: recombinant full-length USP7 (Homo sapiens, UniProt Q93009)
- Construct: A 25 μl reaction volume containing recombinant full-length USP7 (62 pM)
- Sequence (Q93009 whole entry): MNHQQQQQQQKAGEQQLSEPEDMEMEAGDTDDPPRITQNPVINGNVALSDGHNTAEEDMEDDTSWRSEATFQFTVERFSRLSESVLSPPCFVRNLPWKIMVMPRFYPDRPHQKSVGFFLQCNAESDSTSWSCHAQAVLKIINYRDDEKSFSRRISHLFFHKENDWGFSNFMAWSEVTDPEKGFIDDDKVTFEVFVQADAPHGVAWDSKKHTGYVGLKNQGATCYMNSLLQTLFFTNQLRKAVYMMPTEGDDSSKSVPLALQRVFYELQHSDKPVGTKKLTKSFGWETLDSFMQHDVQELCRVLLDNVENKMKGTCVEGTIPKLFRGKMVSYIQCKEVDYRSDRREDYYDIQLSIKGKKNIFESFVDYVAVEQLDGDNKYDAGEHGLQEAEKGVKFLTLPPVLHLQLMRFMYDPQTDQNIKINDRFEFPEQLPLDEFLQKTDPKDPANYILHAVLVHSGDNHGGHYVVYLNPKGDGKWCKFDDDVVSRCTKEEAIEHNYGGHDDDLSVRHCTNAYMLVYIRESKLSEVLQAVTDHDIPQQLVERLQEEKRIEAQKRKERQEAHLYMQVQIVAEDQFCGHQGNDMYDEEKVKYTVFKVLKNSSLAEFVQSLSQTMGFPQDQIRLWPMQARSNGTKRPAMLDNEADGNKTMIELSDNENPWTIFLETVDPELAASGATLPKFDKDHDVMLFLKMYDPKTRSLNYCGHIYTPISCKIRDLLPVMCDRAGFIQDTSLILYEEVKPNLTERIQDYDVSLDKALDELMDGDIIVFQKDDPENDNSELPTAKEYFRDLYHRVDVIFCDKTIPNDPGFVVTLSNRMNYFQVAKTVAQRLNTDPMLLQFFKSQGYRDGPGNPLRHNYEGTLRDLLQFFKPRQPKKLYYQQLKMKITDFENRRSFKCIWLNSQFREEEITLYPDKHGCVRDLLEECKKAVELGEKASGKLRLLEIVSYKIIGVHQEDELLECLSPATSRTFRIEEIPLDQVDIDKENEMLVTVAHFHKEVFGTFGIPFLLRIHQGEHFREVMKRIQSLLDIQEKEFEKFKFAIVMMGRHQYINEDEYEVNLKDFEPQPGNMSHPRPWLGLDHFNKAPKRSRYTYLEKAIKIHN
- test_details: USP7-mediated ubiquitin-rhodamine cleavage assay
- Format: biochemical
- particulars: recombinant full-length USP7 62 pM; ubiquitin-rhodamine 100 nM; 30-minute incubation with compound, 1 hour reaction at room temperature; read-out: Potency: USP7 IC50
- Protocol: In the case of the USP7 deubiquitylating enzyme, the IC50 of an USP7 inhibiting compound is the concentration of the compound that inhibits 50% of the activity observed in a USP7-mediated ubiquitin-rhodamine cleavage assay. For the USP7 inhibitors disclosed herein, their potency was measured using the following test method. […]
pIC50: −log10 of the molar value.
measurement_name: pIC50

INSERT INTO assay_data (compound, measurement_name, result) VALUES
  ('Cc1cc(Cl)cc(-c2ccnc3cc(CN4C(=O)C5C(C4=O)C5(C)C)sc23)c1O[C@@H]1CNCC[C@@H]1C (stereo partly shown)', 'pIC50', '> 6.00'),
  ('Cc1cc(Cl)cc(-c2ncnc3cc(CN4C(=O)C5CC5C4=O)sc23)c1O[C@H]1CCCNC1 (stereo partly shown)', 'pIC50', '> 6.00'),
  ('Cc1cc(Cl)cc(-c2ccnc3cc(CN4C(=O)CCC4=O)sc23)c1O[C@H]1CCNC[C@@H]1C', 'pIC50', '> 6.00'),
  ('CO[C@H]1CNC[C@H]1Oc1c(C)cc(Cl)cc1-c1ccnc2cc(CN3C(=O)CCC3=O)sc12', 'pIC50', '> 6.00'),
  ('Cc1cc(Cl)cc(-c2ccnc3ccsc23)c1OC1CCCNCC1 (stereo not shown)', 'pIC50', '5.00 to 6.00'),
  ('Cc1cc(Cl)cc(-c2ccnc3cc(CN4C(=O)CCNC4=O)sc23)c1O[C@@H]1CNC[C@@H]1F', 'pIC50', '> 6.00'),
  ('CC(=O)N[C@H]1CNC[C@H]1Oc1c(C)cc(Cl)cc1-c1ccnc2cc(CN3C(=O)CCC3=O)sc12', 'pIC50', '5.00 to 6.00');

* * *

- tested_on: recombinant full-length USP7 (Homo sapiens, UniProt Q93009)
- Construct: A 25 μl reaction volume containing recombinant full-length USP7 (62 pM)
- test_details: USP7-mediated ubiquitin-rhodamine cleavage assay
- Assay type: biochemical
- particulars: recombinant full-length USP7 62 pM; ubiquitin-rhodamine 100 nM; 30-minute incubation with compound, 1 hour reaction at room temperature; read-out: Potency: USP7 IC50
pIC50: −log10 of the molar value.
Quick reference for pIC50 among some compounds
measurement_name: pIC50

INSERT INTO results (compound, measurement_name, result) VALUES
  ('Cc1cc(Cl)cc(-c2ccnc3cc(CO)sc23)c1O[C@@H]1CNC[C@@H]1O', 'pIC50', '5.00 to 6.00'),
  ('Cc1cc(C(F)(F)F)cc(-c2ccnc3cc(Cn4c(=O)ccn(C)c4=O)sc23)c1O[C@@H]1CNC[C@@H]1F', 'pIC50', '> 6.00'),
  ('Cc1cc(Cl)cc(-c2ccnc3cc(CN4C(=O)CCC4=O)sc23)c1O[C@@H]1CNC[C@H]1F', 'pIC50', '> 6.00'),
  ('Cc1cc(Cl)cc(-c2ccnc3cc(CN4C(=O)c5cccnc5C4=O)sc23)c1O[C@H]1CCCNC1', 'pIC50', '> 6.00'),
  ('Cc1cc(Cl)cc(-c2ccnc3cc(CN4C(=O)C5CCCCN5C4=O)sc23)c1OC1CCNCC1 (centres unmarked)', 'pIC50', '> 6.00'),
  ('OCc1cc2nccc(-c3cc(Cl)ccc3OCC3CNC3)c2s1', 'pIC50', '5.00 to 6.00'),
  ('CCC(O)c1cc2nccc(-c3cc(Cl)cc(C)c3OCC3(C#N)CNC3)c2s1 (centres unmarked)', 'pIC50', '> 6.00'),
  ('Cc1cc(Cl)cc(-c2ccnc3cc(CN4C(=O)CCC4=O)sc23)c1OCC12CNCC1C2 (centres unmarked)', 'pIC50', '> 6.00'),
  ('Cc1cc(Cl)cc(-c2ccnc3cc(CN4C(=O)CCC4=O)sc23)c1OC1CCNC1C (centres unmarked)', 'pIC50', '> 6.00'),
  ('Cc1cc(Cl)cc(-c2ccnc3cc(CN4C(=O)C(C)C(C)C4=O)sc23)c1O[C@H]1CCCNC1 (some centres unmarked)', 'pIC50', '> 6.00'),
  ('Cc1cc(Cl)cc(-c2ccnc3cc(CN4C(=O)CCC4=O)sc23)c1O[C@@H]1CCNC[C@@H]1C', 'pIC50', '> 6.00');
